experiment.summary: Relative lipophilicity of the compound
Format: physicochemical
condition.description: reversed-phase TLC, acetone/water 2:1
Please note: TRUE applies when Rm is -0.2 or greater, and FALSE applies otherwise.

{"mol": "CCCNC(=O)N1N=C(c2cccc(N)c2)c2cc3c(cc2CC1=O)OCO3", "category": "TRUE"}
{"mol": "Nc1ccc(C2=NNC(=O)Cc3cc4c(cc32)OCO4)cc1", "category": "FALSE"}
{"mol": "CCNC(=O)N1N=C(c2ccc(N)cc2)c2cc3c(cc2CC1=O)OCO3", "category": "FALSE"}

Incoming: Is it the case that O=C1Cc2cc3c(cc2C(c2ccccc2)=NN1)OCO3 has Rm reaching or exceeding -0.2?
Outgoing: FALSE

Incoming: Decide: Rm of CCCNC(=O)N1N=C(c2ccc(N)cc2)c2cc3c(cc2CC1=O)OCO3 >= -0.2?
Outgoing: FALSE

Incoming: Decide: is the reported value of Rm for Nc1ccc(C2=NN=C(S)Cc3cc4c(cc32)OCO4)cc1 equal to or greater than -0.2?
Outgoing: FALSE

Incoming: Determine whether this compound has Rm no lower than -0.2: CCCCNC(=O)N1N=C(c2ccc(N)cc2)c2cc3c(cc2CC1=O)OCO3
Outgoing: TRUE

Incoming: Item CC1=NN=C(c2ccc(N)cc2)c2cc3c(cc2C1)OCO3 with Rm of -0.2 or above?
Outgoing: FALSE

Incoming: Does Rm meet or surpass -0.2 for Nc1cccc(C2=NN=C(S)Cc3cc4c(cc32)OCO4)c1 ?
Outgoing: FALSE

Incoming: Decide: is the reported value of Rm for Nc1cccc(C2=NNC(=O)Cc3cc4c(cc32)OCO4)c1 equal to or greater than -0.2?
Outgoing: FALSE

Incoming: # bool: Rm of CCNC(=O)N1N=C(c2cccc(N)c2)c2cc3c(cc2CC1=O)OCO3 >= -0.2
Outgoing: FALSE

====

For each entry below, report its ED50 value.
System: Mus musculus
experiment.summary: The compound was tested for Anticonvulsant activity against audiogenic seizures in DBA/2 mice in clonic phase. 60 min after ip administration.
Type: functional
condition.description: 1 h
Numbers only, in µmol/kg.

# count of solved cases: 3
{"mol": "Nc1ccc(C2=NN=C(S)Cc3cc4c(cc32)OCO4)cc1", "ED50 [µmol/kg]": 19.6}
{"mol": "CNC(=O)N1N=C(c2ccc(N)cc2)c2cc3c(cc2CC1=O)OCO3", "ED50 [µmol/kg]": 13}
{"mol": "Nc1cccc(C2=NNC(=O)Cc3cc4c(cc32)OCO4)c1", "ED50 [µmol/kg]": 26.3}

Respectfully, I request ED50 for each entry included below.
1. Nc1cccc(C2=NN=C(S)Cc3cc4c(cc32)OCO4)c1
2. Nc1ccc(C2=NNC(=O)Cc3cc4c(cc32)OCO4)cc1

Outgoing:
1: 22.4; 2: 21.3

====

System: Mus musculus
experiment.summary: The compound was tested for Anticonvulsant activity against audiogenic seizures in DBA/2 mice in clonic phase. 90 min after ip administration.
Type: functional
condition.description: 1.5 h
test.readout: ED50

Example compounds with recorded ED50:
{"mol": "Nc1cccc(C2=NN=C(S)Cc3cc4c(cc32)OCO4)c1", "ED50": "45.2 µmol/kg"}
{"mol": "Nc1ccc(C2=NN=C(S)Cc3cc4c(cc32)OCO4)cc1", "ED50": "45 µmol/kg"}

Dear reader, for each entry below, please note its ED50.
1. CNC(=O)N1N=C(c2ccc(N)cc2)c2cc3c(cc2CC1=O)OCO3
2. Nc1ccc(C2=NNC(=O)Cc3cc4c(cc32)OCO4)cc1

Outgoing:
19.4 µmol/kg
> 50 µmol/kg

# batch: return ED50 for each of the 2 compounds below
1. Nc1cccc(C2=NNC(=O)Cc3cc4c(cc32)OCO4)c1
2. CC1=NN=C(c2ccc(N)cc2)c2cc3c(cc2C1)OCO3

Outgoing:
1. 47.1 µmol/kg
2. > 50 µmol/kg
